- protocol-text: 2-hour single-point pharmacokinetic (PK) study, blood and brain
- Assay type: in vivo, C57BL/6 female mice
- condition-label: female, C57BL/6, mouse, brain / blood; SC 5 mg/kg, 2 hours after dosing; read-out: brain uptake ratio over the blood
recorded-endpoint: Kp at 2 h

### Prompt For the compound Oc1ccc(-n2nc3c(Cl)cc(O)cc3c2Cl)cc1 , what Kp at 2 h is on record?
### Response ~6

====

- test-target: purified, full length human ERβ (Homo sapiens)
- Construct: purified, full length human ERα and ERβ
- Sequence (Q92731 whole entry): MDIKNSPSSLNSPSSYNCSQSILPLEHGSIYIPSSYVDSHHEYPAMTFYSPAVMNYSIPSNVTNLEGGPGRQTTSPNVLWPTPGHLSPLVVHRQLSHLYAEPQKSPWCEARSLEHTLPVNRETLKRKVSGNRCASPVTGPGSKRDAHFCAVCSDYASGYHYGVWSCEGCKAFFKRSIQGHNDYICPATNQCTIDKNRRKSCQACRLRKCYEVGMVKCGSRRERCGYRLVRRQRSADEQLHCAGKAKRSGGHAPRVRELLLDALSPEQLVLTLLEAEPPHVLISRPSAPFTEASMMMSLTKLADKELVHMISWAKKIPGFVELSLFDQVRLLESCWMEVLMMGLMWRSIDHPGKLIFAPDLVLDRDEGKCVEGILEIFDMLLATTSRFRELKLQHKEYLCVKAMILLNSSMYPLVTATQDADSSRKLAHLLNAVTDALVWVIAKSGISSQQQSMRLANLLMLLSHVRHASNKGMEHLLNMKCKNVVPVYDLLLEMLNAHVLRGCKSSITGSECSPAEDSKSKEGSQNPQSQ
- protocol-text: Relative binding affinity (RBA) radiometric competitive binding assay, ERβ
- condition-label: ratio of RBA ERβ to RBA ERα
recorded-endpoint: β/α (ERβ/ERα selectivity)
Respond numerically, and do not add a unit to the figure.

Solved cases below.
[
  {
    "mol": "Oc1ccc(-n2nc3cc(F)c(O)cc3c2Cl)cc1",
    "reported-measurement": 48.7
  },
  {
    "mol": "Oc1ccc(-n2cc3cc(O)cc(Br)c3n2)cc1",
    "reported-measurement": 131
  },
  {
    "mol": "Oc1ccc(-n2nc3c(Br)cc(O)cc3c2Cl)cc1",
    "reported-measurement": 18
  }
]

### Prompt Lab request: please report β/α (ERβ/ERα selectivity) under test system purified, full length human ERβ (Homo sapiens) for Cc1cc(O)ccc1-n1nc2cc(Cl)c(O)cc2c1Cl
### Response 2.63

### Prompt Another: Cc1cc(O)cc2cn(-c3ccc(O)cc3)nc12
### Response 144

### Prompt Another: Oc1ccc(-n2nc3cc(Cl)c(O)cc3c2Cl)cc1
### Response 15.49

### Prompt Another: Oc1cc(Cl)c2nn(-c3ccc(O)c(F)c3)c(Cl)c2c1
### Response 38.3

### Prompt Another: Oc1ccc(-n2nc3c(Br)cc(O)cc3c2Br)cc1
### Response 7

### Prompt Another: Cc1cc(O)cc2c(Cl)n(-c3ccc(O)cc3)nc12
### Response 17

### Prompt Another: Oc1cccc(-n2nc3c(Br)cc(O)cc3c2Cl)c1
### Response 246

### Prompt Another: Oc1ccc(-n2nc3c(Br)cc(O)cc3c2F)cc1
### Response 70.1

### Prompt Another: Oc1ccc(-n2cc3cc(O)cc(Cl)c3n2)c(F)c1
### Response 185

====

- test-target: purified, full length human ERα (Homo sapiens, UniProt P03372)
- Construct: purified, full length human ERα and ERβ
- Sequence (P03372 1-595): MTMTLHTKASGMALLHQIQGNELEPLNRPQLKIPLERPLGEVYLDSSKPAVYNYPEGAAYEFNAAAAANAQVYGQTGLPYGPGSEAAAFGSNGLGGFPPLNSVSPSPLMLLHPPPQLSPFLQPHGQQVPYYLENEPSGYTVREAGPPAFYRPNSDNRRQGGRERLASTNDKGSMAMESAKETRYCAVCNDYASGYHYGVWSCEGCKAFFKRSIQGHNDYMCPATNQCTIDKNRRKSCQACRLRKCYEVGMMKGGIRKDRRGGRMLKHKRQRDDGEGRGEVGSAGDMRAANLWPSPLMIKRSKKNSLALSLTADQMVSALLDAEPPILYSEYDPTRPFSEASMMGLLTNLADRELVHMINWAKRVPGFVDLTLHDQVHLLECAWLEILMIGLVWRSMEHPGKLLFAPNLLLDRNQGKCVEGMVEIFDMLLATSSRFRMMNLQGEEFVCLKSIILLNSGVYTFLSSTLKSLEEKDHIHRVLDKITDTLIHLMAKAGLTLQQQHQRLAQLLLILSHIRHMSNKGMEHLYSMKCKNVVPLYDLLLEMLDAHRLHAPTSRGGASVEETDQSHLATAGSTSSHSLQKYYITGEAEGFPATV
- protocol-text: Relative binding affinity (RBA) radiometric competitive binding assay, ERα
- condition-label: relative binding affinity, E2 (estradiol) is 100%; tritiated estradiol tracer
Label NOT MET if RBA ERα falls below 0.07%; label MET in every other case.

Example entries and their recorded answers appear below.
[
  {
    "mol": "Cc1cc(O)ccc1-n1nc2cc(F)c(O)cc2c1Cl",
    "category-label": "MET"
  },
  {
    "mol": "Oc1ccc(-n2nc3cc(F)c(O)cc3c2Cl)cc1",
    "category-label": "MET"
  },
  {
    "mol": "Oc1ccc(-n2nc3c(F)cc(O)cc3c2Cl)cc1",
    "category-label": "MET"
  },
  {
    "mol": "Oc1ccc(-n2nc3c(Br)cc(O)cc3c2Br)cc1",
    "category-label": "MET"
  },
  {
    "mol": "Cc1cc(O)ccc1-n1nc2c(O)cc(O)cc2c1Cl",
    "category-label": "NOT MET"
  }
]

Alright, here's another compound for you.
### Prompt Hi, just wondering whether Oc1ccc(-n2nc3c(O)cc(O)cc3c2Cl)cc1 shows RBA ERα of 0.07% or higher.
### Response NOT MET

Just for reference, patent US20260224532A1 is where these values come from.
